Cited source for all entries: ChEMBL document CHEMBL3885861

Species on record: Rattus norvegicus
ASSAY PROTOCOL: Open TG-GATES - Regimen: Single
Format: toxicity, organism-based, Sprague-Dawley
Parameters: regimen Single, gender Male, age 6 weeks
CONDITIONS USED: in vivo, po, 0 mg/kg, 3 h, tissue Plasma, route gavage, dose level Control
MEASUREMENT TYPE: TP (g/dL)

{"COMPOUND": "CN(C)C(=N)N=C(N)N", "REPORTED RESULT": 5.2}
{"COMPOUND": "OCCOCCN1CCN(C(c2ccccc2)c2ccc(Cl)cc2)CC1 (stereo not given) [HYDROXYZINE]", "REPORTED RESULT": 5.4}
{"COMPOUND": "ClC(Cl)(Cl)Cl [CARBON TETRACHLORIDE]", "REPORTED RESULT": 5.6}
{"COMPOUND": "CC1=C(CC(=O)O)c2cc(F)ccc2/C1=C\\c1ccc([S+](C)[O-])cc1 (stereo not given)", "REPORTED RESULT": 5.4}
{"COMPOUND": "CC[C@H]1[C@@H]2C[C@H]3[C@@H]4N(C)c5ccccc5[C@]45C[C@@H]([C@@H]2[C@H]5O)N3[C@@H]1O", "REPORTED RESULT": 5.3}
{"COMPOUND": "CCC1(c2ccccc2)C(=O)NC(=O)NC1=O", "REPORTED RESULT": 5.3}
{"COMPOUND": "CCc1oc2ccccc2c1C(=O)c1cc(Br)c(O)c(Br)c1", "REPORTED RESULT": 5.7}
{"COMPOUND": "CC(C)N(CCC(C(N)=O)(c1ccccc1)c1ccccn1)C(C)C (stereo not given) [DISOPYRAMIDE]", "REPORTED RESULT": 5.4}
{"COMPOUND": "O=NN(CCCl)C(=O)NC1CCCCC1", "REPORTED RESULT": 5.6}
{"COMPOUND": "CN(C)CCC=C1c2ccccc2COc2ccccc21 [DOXEPIN]", "REPORTED RESULT": 5.3}
